Could you please report measured pKd for the items listed next?
biological target: T1, Antibody 178-10_His CA_W152C_L452R_D614G (27081) (SARS-CoV-2, UniProt P0DTC2 14-685); test: Carterra SPR
T1 construct: domain: S1; also called CA variant S1; California variant S1
Numbers only, as −log10 of the molar value.

Solved cases (5 shown):
3-31 (VHH, also called 3-31_ExpiCHO) VHH: EVQLVESGGGLVQPGGSLRLSCAASGSTFSINAMGWFRQAPGKEREFVAGITSSGGYTNYADSVKGRFTISADNSKNTAYLQMNSLKPEDTAVYYCAADGVPEYSDYASGPVWGQGTLVTVSS	7.39
7-37 (VHH) VHH: EVQLVESGGGLVQPGGSLRLSCAASGSTLSINAMGWFRQAPGKEREFVAGITRSGSVTNYADSVKGRFTISADNSKNTAYLQMNSLKPEDTAVYYCAADGVPEYSDYASGPVWGQGTLVTVSS	7.35
7-09 (VHH, also called 7-9) VHH: EVQLVESGGGLVQPGGSLRLSCAASGGTFSSIGMGWFRQAPGKEREFVAAISWDGGATAYADSVKGRFTISADNSKNTAYLQMNSLKPEDTAVYYCAKEDVGKPFDWGQGTLVTVSS	7.41
7-30 (VHH, not shown: a dimerising Fc or GST) VHH: EVQLVESGGGLVQPGGSLRLSCAASGRTFSMHAMGWFRQAPGKEREFVASISSQGRTNYADSVKGRFTISADNSKNTAYLQMNSLKPEDTAVYYCAAEVRNGSDYLPIDWGQGTLVTVSS	7.25
7-14 (VHH) VHH: EVQLVESGGGLVQPGGSLRLSCAASGSTFSINAMGWFRQAPGKEREFVAGISRGGTTNYADSVKGRFTISADNSKNTAYLQMNSLKPEDTAVYYCAADGVPEYSDYASGPVWGQGTLVTVSS	7.37

// each listed binder needs a value for pKd
1. 6A-3 (VHH) VHH: EVQLVESGGGLVQPGGSLRLSCAASGFTFSPSWMGWFRQAPGKEREFVATINEYGGRNYADSVKGRFTISADNSKNTAYLQMNSLKPEDTAVYYCARVDRDFDYWGQGTLVTVSS
2. 5A-1 (VHH) VHH: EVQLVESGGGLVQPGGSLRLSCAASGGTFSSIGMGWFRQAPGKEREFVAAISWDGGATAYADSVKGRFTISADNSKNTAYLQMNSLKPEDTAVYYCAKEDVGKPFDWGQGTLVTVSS
3. 7-26 (VHH) VHH: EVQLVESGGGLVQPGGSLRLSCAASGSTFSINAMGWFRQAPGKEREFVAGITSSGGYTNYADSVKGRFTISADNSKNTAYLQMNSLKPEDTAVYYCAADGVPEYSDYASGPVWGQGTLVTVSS

[7.57, 7.90, 7.46]
